# protocol.description: A quantitative high throughput screen for small molecules that induce DNA re-replication in MCF 10a normal breast cells. Further: nearly all actives have a fitted effect of over 50% in size.
# settings: MCF 10A DNA re-replication, Hoechst nuclear intensity, 48 h; series mostly up to 46.1 µM
Screen size: about 350,000 compounds; about 9,900 (2.8%) were called active. Roughly 15% stayed inconclusive and do not appear here. The call rests on the fitted dose curve; in most records, active means well fitted activation curve with a large enough effect; inconclusive means small, poorly fitted or top-dose-only effect; inactive means no such curve, though single readings can be large or run the other way. The sample as a whole holds a higher share of actives than the screen did.
Returns: one label drawn from Yes (active), No (inactive)

What did this assay record as the result for Cc1ccc(OCc2nc(C#N)c(N3CCCC3)o2)cc1 ? No

Lab log entry: O=S(=O)(Nc1cc(Cl)ccc1N1CCOCC1)c1ccccc1Cl — outcome as called in the assay? No

Test call for this compound, please: CCOC(=O)c1c(-c2ccccc2)oc2ccc(OCC(N)=O)cc12 No

Each compound tested received a call. Report the one for O=S(=O)(c1ccccc1)c1nc(-c2ccccc2F)oc1NCc1cccnc1 . No

What classification did CC1=CC(C)(C)Nc2ccc(OC(=O)CN3C(=O)C4CCCCC4C3=O)cc21 (stereo unspecified) end up with in this test? Yes

Tell me the assay call for Cc1oc2cc(Br)c(O)c(Br)c2c1C(=O)c1ccccc1 please. No

Which outcome did this test record for the compound Cc1cccc(NS(=O)(=O)c2ccc(C)c(C(=O)NCC(c3ccccc3)N(C)C)c2)c1 (stereo unspecified) ? No

Returns: the outcome recorded for Cc1ccc(CNC(=O)COc2ccc3c(c2)CCC3)cc1 in this assay. No

Please indicate how the test categorized O=C(c1ccc(S(=O)(=O)NCc2ccco2)cc1)N1CCN(c2ccccc2)CC1 . No

Please state the recorded outcome for this compound: CC(=O)Nc1ccc(OCC(=O)NCc2ccc(C)cc2)cc1 Yes

Test call for this compound, please: CCOC(=O)c1c(C)oc2cc(Sc3ccccc3)c(O)c(O)c12 No

The origin of these recorded values is PubChem BioAssay AID624296.
